target: Δ^1-pyrroline-5-carboxylate dehydrogenase (MmP5CDH, ALDH4A1) (Mus musculus, UniProt Q8CHT0); assay: X-ray crystal structure; assay type: biochemical
Sequence (Q8CHT0 21-562, stated change not applied): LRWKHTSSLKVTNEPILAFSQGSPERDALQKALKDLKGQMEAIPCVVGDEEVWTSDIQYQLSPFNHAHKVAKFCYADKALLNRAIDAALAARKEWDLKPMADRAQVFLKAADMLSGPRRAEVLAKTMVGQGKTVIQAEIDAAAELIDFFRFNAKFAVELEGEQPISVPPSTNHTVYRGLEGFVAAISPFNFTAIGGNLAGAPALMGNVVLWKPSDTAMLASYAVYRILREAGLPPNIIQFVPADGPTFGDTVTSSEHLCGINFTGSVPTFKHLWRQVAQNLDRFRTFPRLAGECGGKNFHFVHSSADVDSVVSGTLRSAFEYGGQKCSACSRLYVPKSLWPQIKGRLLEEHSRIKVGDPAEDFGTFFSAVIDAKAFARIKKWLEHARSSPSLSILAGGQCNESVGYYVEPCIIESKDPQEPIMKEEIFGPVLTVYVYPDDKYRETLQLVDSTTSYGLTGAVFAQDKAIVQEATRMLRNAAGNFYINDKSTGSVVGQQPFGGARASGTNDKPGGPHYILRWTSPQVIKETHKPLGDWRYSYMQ
MEASUREMENT LABEL: Ki (µM)
# unit: µM | format: bare number

## Input Given O=CC(=O)O [compound 4, glyoxylate] , state its recorded Ki.
## Output 270

* * *

target: UniProt Q8CHT0; assay: steady-state inhibition kinetics, NADH production at […] nm, competitive model; assay type: biochemical
MEASUREMENT LABEL: pKi
Just the number, please; pKi means minus log10 of the concentration in mol/L.

## Input Which pKi reading was recorded for the compound N[C@@H](CCC(=O)O)C(=O)O [L-glutamate] ?
## Output 1.92
